Data provenance: patent US20220144960A1

Target: T1, recombinant human CD30 extra cellular domain (ECD) protein (human, UniProt P28908 19-379)
T1 construct: Bought from R&D systems; also called rhCD30; human CD30 ECD
T1 sequence: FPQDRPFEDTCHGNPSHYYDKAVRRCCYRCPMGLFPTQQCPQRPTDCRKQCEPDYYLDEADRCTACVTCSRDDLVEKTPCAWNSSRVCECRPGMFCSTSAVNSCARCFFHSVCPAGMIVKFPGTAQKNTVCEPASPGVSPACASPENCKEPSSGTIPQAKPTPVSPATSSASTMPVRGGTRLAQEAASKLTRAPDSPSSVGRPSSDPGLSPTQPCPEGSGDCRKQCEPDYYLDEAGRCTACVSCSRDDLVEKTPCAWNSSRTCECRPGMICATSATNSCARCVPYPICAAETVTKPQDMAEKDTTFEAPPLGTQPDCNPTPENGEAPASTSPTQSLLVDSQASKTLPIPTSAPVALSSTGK
Test: SPR Biacore T200, His-tagged sdAb/Fab captured, 100.0 nM human CD30 as analyte, single curve
READOUT_LABEL: Kd (nM)
Report only the number, with the unit nM understood.

For the binder AS48508 sdAb (VHH, Camel sdAb) VHH: EVQLVESGGGSVQAGGSLRLSCTASRFTFDGPDMAWYRQAPGNACELVSIISADGRTYYTDSVKGRFTISRDNAKNTVFLYLNSLQPEDTAVYYCAPDPRRNCRGGYCCGNWGPGTQVTVSS , what Kd is on record? 31
